These data points were gathered from the supplement of paper PMC12350171.

# reported growth AUC normalised to DMSO control; entries follow
Tested on: Yersinia pseudotuberculosis
Test: growth AUC normalised to DMSO control (fraction of control); higher = less growth inhibition, active = hit call of the paper
Conditions: 20 µM
Where a name gives a salt, the structure may show the parent alone.
measurement.name: growth AUC normalised to DMSO control

INSERT INTO measurements (compound, measurement_name, reading) VALUES
  ('NS(=O)(=O)c1cc2c(cc1C(F)(F)F)NC(Cc1ccccc1)NS2(=O)=O (centres undefined) [Bendroflumethiazide]', 'growth AUC normalised to DMSO control', 1.01),
  ('CCOC(=O)C1=C(C)NC(C)=C(C(=O)OC)C1c1cccc(Cl)c1Cl (centres undefined) [Felodipine]', 'growth AUC normalised to DMSO control', 0.883),
  ('Nc1nc2c(ncn2COC(CO)CO)c(=O)[nH]1 [Ganciclovir]', 'growth AUC normalised to DMSO control', 0.99),
  ('CCN(CC)CCOC(=O)c1ccc(N)cc1 [Procaine hydrochloride]', 'growth AUC normalised to DMSO control', 1),
  ('Cn1c(=O)c2c(ncn2CC2OCCO2)n(C)c1=O [Doxofylline]', 'growth AUC normalised to DMSO control', 0.99),
  ('COC(=O)C1=C(C)NC(C)=C(C(=O)OCC(C)C)C1c1ccccc1[N+](=O)[O-] (centres undefined) [Nisoldipine]', 'growth AUC normalised to DMSO control', 0.991),
  ('CCCCOC(=O)c1ccc(N)cc1 [Butamben]', 'growth AUC normalised to DMSO control', 0.937),
  ('CNC[C@H](O)[C@@H](O)[C@H](O)[C@H](O)CO [Meglumine]', 'growth AUC normalised to DMSO control', 0.984),
  ('CC[C@@H]1C(=O)OC[C@@H]1Cc1cncn1C [Pilocarpine nitrate]', 'growth AUC normalised to DMSO control', 1.04);

###

# reported growth AUC normalised to DMSO control; entries follow
Tested on: S. enterica typhimurium WT
Experiment: growth AUC normalised to DMSO control (median) (fraction of control); higher = less growth inhibition, active = hit call of the paper
Conditions: 20 µM
Structures can show the parent of a compound that is named as a salt.
measurement.name: growth AUC normalised to DMSO control

INSERT INTO results (molecule, target, reading) VALUES
  ('CC[N+](CC)(CC)CCC(O)(c1ccccc1)C1CCCCC1 (centres undefined) [Tridihexethyl chloride]', 'S. enterica typhimurium WT', 1.02),
  ('O=C(c1ccc(F)cc1)C1CCN(CCn2c(=O)[nH]c3ccccc3c2=O)CC1 [Ketanserin tartrate hydrate]', 'S. enterica typhimurium WT', 1.02),
  ('Cn1c(=O)c2[nH]cnc2n(C)c1=O', 'S. enterica typhimurium WT', 0.993),
  ('COc1cc2c(cc1OC)C(=O)C(CC1CCN(Cc3ccccc3)CC1)C2 (centres undefined) [Donepezil hydrochloride]', 'S. enterica typhimurium WT', 0.997);

###

System: Yersinia pseudotuberculosis
Assay: growth AUC normalised to DMSO control (fraction of control); higher = less growth inhibition, active = hit call of the paper
Details: 20 µM
Structures can show the parent of a compound that is named as a salt.
Labels: yes = active, no = inactive

INSERT INTO measurements (compound, label_value) VALUES
  ('COc1ccc2c(c1)c(CC(=O)O)c(C)n2C(=O)c1ccc(Cl)cc1', 'no'),
  ('COc1ccc(OC)c(C(O)CNC(=O)CN)c1 (centres undefined) [Midodrine hydrochloride]', 'no'),
  ('Cc1cccc(Nc2ccncc2S(=O)(=O)NC(=O)NC(C)C)c1 [Torsemide]', 'no'),
  ('Nc1ccc(S(=O)(=O)Nc2ncccn2)cc1', 'no'),
  ('Nc1ccn([C@H]2CC[C@@H](CO)O2)c(=O)n1', 'no'),
  ('O=C(O)CCC(=O)c1ccc(-c2ccccc2)cc1', 'no'),
  ('N=C(N)NCCN1CCCCCCC1 [Guanethidine sulfate]', 'no'),
  ('CCn1cc(C(=O)O)c(=O)c2cc(F)c(N3CCNC(C)C3)c(F)c21 (centres undefined) [Lomefloxacin hydrochloride]', 'yes'),
  ('CNCC[C@@H](Oc1ccccc1C)c1ccccc1 [Tomoxetine hydrochloride]', 'no');

###

# reported growth AUC normalised to DMSO control; entries follow
System: P. vulgatus WT
Assay: growth AUC normalised to DMSO control (median) (fraction of control); higher = less growth inhibition, active = hit call of the paper
Details: 20 µM
Counter-ions that a name gives are not always drawn.
measurement.name: growth AUC normalised to DMSO control

INSERT INTO measurements (compound, reading) VALUES
  ('Nc1ccc(S(=O)(=O)Nc2ccccn2)cc1', 1),
  ('CN1CCN(CCCN2c3ccccc3Sc3ccc(C(F)(F)F)cc32)CC1 [Trifluoperazine dihydrochloride]', 0.941),
  ('NC(=O)Cc1cccc(C(=O)c2ccccc2)c1N', 1.01),
  ('N[C@@H](C(=O)N[C@@H]1C(=O)N2C(C(=O)O)=C(Cl)CS[C@H]12)c1ccccc1 [Cefaclor hydrate]', 1.05),
  ('CC(=O)Oc1ccc(C(c2ccc(OC(C)=O)cc2)c2ccccn2)cc1', 1.04),
  ('NCC[C@H](O)C(=O)N[C@@H]1C[C@H](N)[C@@H](O[C@H]2O[C@H](CN)[C@@H](O)[C@H](O)[C@H]2O)[C@H](O)[C@H]1O[C@H]1O[C@H](CO)[C@@H](O)[C@H](N)[C@H]1O [Amikacin hydrate]', 1.04),
  ('CC(=O)NC[C@H]1CN(c2ccc(N3CCOCC3)c(F)c2)C(=O)O1', 0.011),
  ('CC(C)(CO)[C@@H](O)C(=O)NCCCO', 0.979);

###

Test system: P. vulgatus RND KO
Assay: growth AUC normalised to DMSO control (median) (fraction of control); higher = less growth inhibition, active = hit call of the paper
Settings: 20 µM
Counter-ions that a name gives are not always drawn.
measurement.name: growth AUC normalised to DMSO control

INSERT INTO assay_data (compound, reading) VALUES
  ('CC(C)(C)NC(=O)[C@H]1CC[C@H]2[C@@H]3CC[C@H]4NC(=O)C=C[C@]4(C)[C@H]3CC[C@]12C [Finasteride]', 1.02),
  ('CC(NCCC(c1ccccc1)c1ccccc1)c1ccccc1 (stereo not drawn) [Fendiline hydrochloride]', 0.978),
  ('Cc1ccc(Cl)c(Nc2ccccc2C(=O)O)c1Cl [Meclofenamic acid sodium salt monohydrate]', 0.859),
  ('CCOC(=O)CC(=O)N1CCSC1COc1ccccc1OC (stereo not drawn) [Moguisteine]', 0.965),
  ('CC[C@@]1(O)C(=O)OCc2c1cc1n(c2=O)Cc2cc3c(CN(C)C)c(O)ccc3nc2-1 [Topotecan]', 1.01),
  ('CC(C)CN(C[C@@H](O)[C@H](Cc1ccccc1)NC(=O)O[C@H]1CCOC1)S(=O)(=O)c1ccc(N)cc1 [Amprenavir]', 1.01),
  ('CCCc1nc(C)c2c(=O)nc(-c3cc(S(=O)(=O)N4CCN(CC)CC4)ccc3OCC)[nH]n12 [Vardenafil]', 1.01),
  ('CC(NN)c1ccccc1 (stereo not drawn) [Mebanazine]', 0.898);

###

Tested on: P. vulgatus WT
Assay: growth AUC normalised to DMSO control (median) (fraction of control); higher = less growth inhibition, active = hit call of the paper
Details: 20 µM
Counter-ions that a name gives are not always drawn.
measurement.name: growth AUC normalised to DMSO control

INSERT INTO results (compound, target, reading) VALUES
  ('CCCCc1oc2ccc(NS(C)(=O)=O)cc2c1C(=O)c1ccc(OCCCN(CCCC)CCCC)cc1 [Dronedarone hydrochloride]', 'P. vulgatus WT', 1.03),
  ('CC(N/C(=N\C#N)Nc1ccncc1)C(C)(C)C (configuration not stated) [Pinacidil monohydrate]', 'P. vulgatus WT', 1.06),
  ('Nc1nc2c(ncn2COC(CO)CO)c(=O)[nH]1', 'P. vulgatus WT', 0.971),
  ('NC[C@H]1O[C@H](O[C@H]2[C@H](O)[C@@H](O[C@H]3O[C@H](CO)[C@@H](O)[C@H](N)[C@H]3O)[C@H](N)C[C@@H]2N)[C@H](N)C[C@@H]1O', 'P. vulgatus WT', 1.05),
  ('CC(=O)OCC(=O)[C@@]1(O)CC[C@H]2[C@@H]3CCC4=CC(=O)CC[C@]4(C)[C@@]3(F)[C@@H](O)C[C@@]21C [Fludrocortisone acetate]', 'P. vulgatus WT', 1.04),
  ('COc1ccccc1OCC(O)CO (configuration not stated)', 'P. vulgatus WT', 0.987),
  ('Cc1ccc(C)c(OCCCC(C)(C)C(=O)O)c1', 'P. vulgatus WT', 0.972),
  ('Cn1cc([S+](C)[O-])c(=O)c2ccc(F)cc21 (configuration not stated)', 'P. vulgatus WT', 1.03),
  ('CC(C)NCC(O)c1ccc(O)c(O)c1 (single isomer, unassigned; (+)) [(+) Isoproterenol-(+)-bitartrate salt]', 'P. vulgatus WT', 1.03),
  ('CC(C)=CCC1C(=O)N(c2ccccc2)N(c2ccccc2)C1=O', 'P. vulgatus WT', 1.09),
  ('OC(CCCN1CCCCC1)(c1ccccc1)c1ccccc1 [Diphenidol hydrochloride]', 'P. vulgatus WT', 1.04),
  ('NC(N)=Nc1nc(CSCC/C(N)=N/S(N)(=O)=O)cs1', 'P. vulgatus WT', 1.04),
  ('O=C(O)CCC(=O)Nc1ccc(S(=O)(=O)Nc2nccs2)cc1', 'P. vulgatus WT', 1.05),
  ('COCCCC/C(=N\OCCN)c1ccc(C(F)(F)F)cc1 [Fluvoxamine maleate]', 'P. vulgatus WT', 0.963),
  ('CNCCC(Oc1ccc(C(F)(F)F)cc1)c1ccccc1 (configuration not stated) [Fluoxetine hydrochloride]', 'P. vulgatus WT', 0.997),
  ('CC(=O)Nc1c(I)c(C(=O)N[C@H]2C(O)O[C@H](CO)[C@@H](O)[C@@H]2O)c(I)c(N(C)C(C)=O)c1I (some centres not stated) [Metrizamide]', 'P. vulgatus WT', 1.01),
  ('Cn1nnc2c(C(N)=O)ncn2c1=O [Temozolomide]', 'P. vulgatus WT', 0.988);
